- TESTED_SYSTEM: Transient receptor potential cation channel subfamily A member 1 (Rattus norvegicus, UniProt Q6RI86)
- Sequence (Q6RI86 whole entry): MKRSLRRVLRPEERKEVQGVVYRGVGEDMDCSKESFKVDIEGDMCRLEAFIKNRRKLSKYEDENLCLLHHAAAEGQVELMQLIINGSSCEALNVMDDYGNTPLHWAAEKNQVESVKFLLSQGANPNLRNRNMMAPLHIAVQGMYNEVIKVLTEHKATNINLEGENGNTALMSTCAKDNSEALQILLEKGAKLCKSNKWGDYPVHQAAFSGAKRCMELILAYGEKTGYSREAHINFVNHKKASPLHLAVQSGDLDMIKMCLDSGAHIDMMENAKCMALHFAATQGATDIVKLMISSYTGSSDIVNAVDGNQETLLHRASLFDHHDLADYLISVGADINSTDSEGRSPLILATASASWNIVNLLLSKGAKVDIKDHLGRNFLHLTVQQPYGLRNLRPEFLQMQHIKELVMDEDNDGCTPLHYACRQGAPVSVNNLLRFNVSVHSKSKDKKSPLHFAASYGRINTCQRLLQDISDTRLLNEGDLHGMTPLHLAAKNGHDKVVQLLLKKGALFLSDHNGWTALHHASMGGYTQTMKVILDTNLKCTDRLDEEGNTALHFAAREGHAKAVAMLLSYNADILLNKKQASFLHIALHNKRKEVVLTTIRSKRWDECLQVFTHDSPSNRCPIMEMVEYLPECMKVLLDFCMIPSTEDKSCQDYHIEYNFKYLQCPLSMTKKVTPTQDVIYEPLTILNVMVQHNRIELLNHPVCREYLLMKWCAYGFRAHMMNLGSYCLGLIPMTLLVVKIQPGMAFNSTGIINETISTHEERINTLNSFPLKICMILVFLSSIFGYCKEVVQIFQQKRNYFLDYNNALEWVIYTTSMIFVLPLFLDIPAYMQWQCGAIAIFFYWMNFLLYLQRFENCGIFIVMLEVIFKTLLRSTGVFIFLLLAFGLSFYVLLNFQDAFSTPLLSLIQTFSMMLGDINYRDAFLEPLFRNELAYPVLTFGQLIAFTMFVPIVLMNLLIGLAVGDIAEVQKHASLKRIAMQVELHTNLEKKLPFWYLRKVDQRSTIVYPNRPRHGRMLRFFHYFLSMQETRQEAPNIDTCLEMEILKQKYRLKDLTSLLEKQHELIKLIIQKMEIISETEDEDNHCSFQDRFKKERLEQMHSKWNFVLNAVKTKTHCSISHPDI
- ASSAY_TEXT: Antagonist activity at rat TRPA1 expressed in HEK293 cells assessed as inhibition of allyl isothiocyanate-induced increase of intracellular calcium level
- Assay type: cell-based
pIC50: −log10 of the molar value.
# pIC50 per entry
MEASUREMENT_LABEL: pIC50

# COMPOUND, READING
records = [
    ("COc1ccc(/C=C/c2ccc(OC)cc2)cc1", 4.97),
    ("CC(=O)Oc1ccc(/C=C/c2ccccc2)cc1", 4.53),
    ("Oc1ccccc1/C=C/c1ccccc1", 5.66),
    ("COc1cc(/C=C/c2ccccc2)cc(OC)c1 [3,5-O-DIMETHYLPINOSYLVIN]", 5.47),
    ("COc1ccc(/C=C/c2ccc(O)cc2)cc1", 5.00),
    ("CC(=O)Oc1ccc(/C=C/c2cc(OC(C)=O)cc(OC(C)=O)c2)cc1 [TRIACETYLRESVERATROL]", 4.93),
]

The reported measurements were obtained from ChEMBL document CHEMBL3751759.
